- testedSystem: T1, cyno IL-23 (cyno, limits assumed)
- T1 construct: Heterodimer of p19 and p40; also called cynomolgus IL-23
- T1 chain 1: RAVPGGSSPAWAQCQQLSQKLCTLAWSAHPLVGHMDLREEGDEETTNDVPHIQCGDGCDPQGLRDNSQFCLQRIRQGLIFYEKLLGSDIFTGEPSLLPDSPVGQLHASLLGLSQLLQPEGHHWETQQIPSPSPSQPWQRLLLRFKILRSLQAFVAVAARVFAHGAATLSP
- T1 chain 2: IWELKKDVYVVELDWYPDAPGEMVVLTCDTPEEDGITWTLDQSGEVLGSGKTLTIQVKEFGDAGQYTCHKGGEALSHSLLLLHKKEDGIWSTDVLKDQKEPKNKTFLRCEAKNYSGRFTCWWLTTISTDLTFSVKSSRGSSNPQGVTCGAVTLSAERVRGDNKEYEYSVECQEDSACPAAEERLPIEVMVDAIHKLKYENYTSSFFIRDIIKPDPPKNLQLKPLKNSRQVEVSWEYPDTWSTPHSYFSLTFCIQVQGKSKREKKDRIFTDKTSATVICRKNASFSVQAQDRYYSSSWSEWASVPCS
- methodNotes: SPR Biacore, purified mAb captured on anti-human IgG, cyno IL-23 64-0.062 nM
Listed here: items and their measured kon.
Numbers only here, please. The scale is M⁻¹ s⁻¹.

Solved cases (5 shown):
A24AM4 (antibody, human IgG1, kappa, V domains shown) VH: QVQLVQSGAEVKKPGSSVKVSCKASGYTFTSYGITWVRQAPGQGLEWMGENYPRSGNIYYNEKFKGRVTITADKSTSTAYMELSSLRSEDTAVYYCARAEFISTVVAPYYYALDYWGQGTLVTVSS VL: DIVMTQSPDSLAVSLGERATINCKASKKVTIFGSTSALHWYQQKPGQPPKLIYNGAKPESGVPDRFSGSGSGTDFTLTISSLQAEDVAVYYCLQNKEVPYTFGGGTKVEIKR
1.74e+06
A5M12 (antibody, human IgG1, V domains shown) VH: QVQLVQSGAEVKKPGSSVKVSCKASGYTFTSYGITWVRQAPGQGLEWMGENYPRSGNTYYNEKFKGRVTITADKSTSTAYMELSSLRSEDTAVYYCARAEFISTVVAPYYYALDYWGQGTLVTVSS VL: DIVMTQSPDSLAVSLGERATINCKASKKVTIYGSTSALHWYQQKPGQPPKLIYNGAKPESGVPDRFSGSGSGTDFTLTISSLQAEDVAVYYCLQNKEVPYTFGGGTKVEIK
1.45e+06
A24AM18 (antibody, human IgG1, kappa, V domains shown) VH: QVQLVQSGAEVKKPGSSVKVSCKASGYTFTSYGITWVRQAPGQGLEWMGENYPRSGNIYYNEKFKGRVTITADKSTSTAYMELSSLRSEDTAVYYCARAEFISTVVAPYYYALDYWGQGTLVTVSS VL: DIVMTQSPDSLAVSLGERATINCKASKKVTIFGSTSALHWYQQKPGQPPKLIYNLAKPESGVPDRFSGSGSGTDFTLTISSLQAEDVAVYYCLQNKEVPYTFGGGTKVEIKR
1.88e+06
A5M20 (antibody, human IgG1, kappa, V domains shown) VH: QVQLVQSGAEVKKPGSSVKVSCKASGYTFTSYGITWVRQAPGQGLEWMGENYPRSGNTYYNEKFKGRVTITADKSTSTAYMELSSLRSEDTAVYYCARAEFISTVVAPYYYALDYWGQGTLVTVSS VL: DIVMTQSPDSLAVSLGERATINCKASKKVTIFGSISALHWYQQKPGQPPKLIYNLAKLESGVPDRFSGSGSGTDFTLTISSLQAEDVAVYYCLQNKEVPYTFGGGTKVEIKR
2.05e+06
A3M0 (antibody, human IgG1, kappa, V domains shown, human gamma1 and kappa constant regions; Tested as HEK supernatant and as purified antibody; also called A3M0 purified) VH: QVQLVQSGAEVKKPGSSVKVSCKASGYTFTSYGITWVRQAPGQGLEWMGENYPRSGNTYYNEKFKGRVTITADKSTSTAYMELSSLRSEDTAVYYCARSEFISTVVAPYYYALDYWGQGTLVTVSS VL: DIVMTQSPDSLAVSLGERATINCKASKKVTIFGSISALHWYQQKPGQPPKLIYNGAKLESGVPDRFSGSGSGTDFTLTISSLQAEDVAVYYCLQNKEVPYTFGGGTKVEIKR
984000

Query: kon; subject: A5M21 (antibody, human IgG1, kappa, V domains shown) VH: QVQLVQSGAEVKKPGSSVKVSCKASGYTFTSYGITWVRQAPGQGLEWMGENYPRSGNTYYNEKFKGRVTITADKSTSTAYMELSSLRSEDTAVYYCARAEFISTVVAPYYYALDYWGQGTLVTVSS VL: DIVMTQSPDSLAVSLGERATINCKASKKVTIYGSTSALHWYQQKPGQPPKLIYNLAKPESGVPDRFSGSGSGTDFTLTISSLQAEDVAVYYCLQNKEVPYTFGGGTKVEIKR 1.6e+06
